- system tested: Retinoic acid receptor alpha (Homo sapiens)
- procedure summary: ATG_DR5_RAR_CIS: Attagene CIS-FACTORIAL HepG2 Assay for human Retinoic Acid Receptor Alpha (RARE), DR5 submotif (AID 2282934)
- condition notes: HepG2 Attagene cis-factorial RARE DR5 reporter, mRNA; actives raise or lower the signal
Activity calls are given as the source filed them. Rule for the calls: active = hit-call score of the fitted dose curve at least 0.9, where 1 is the maximum; inactive = score below 0.9.
Labels: True for active, False for inactive

molecule	assigned class
COc1cc(C=O)ccc1O	True
Cc1ccc(C)c(C)c1	False
Cc1cccc(C)c1O	False
Cc1ccc(C)c(O)c1C	False
C=CCc1ccc(O)c(OC)c1	False
CCCCCCCCCCCCCCCCCC(=O)O	False
CC1(C)NC(=O)NC1=O	False
Nc1ccc2c(c1)C(=O)c1ccccc1C2=O	False
CC1=C(/C=C/C(C)=C/C=C/C(C)=C/CO)C(C)(C)CCC1	True
CCCCCCCCCCCCCO	True
CCOc1ccc2c(c1)C(C)=CC(C)(C)N2	False
OC[C@@H](O)[C@@H](O)[C@H](O)[C@H](O)CO	False
Nc1ccccc1N	False
CN1CCCC1=O	False
COCCOC[C@H](CC1(C(=O)NC2CCC(C(=O)O)CC2)CCCC1)C(=O)Oc1ccc2c(c1)CCC2 (stereo partly specified)	False
CC(=O)C(C)=CC1C(C)=CCCC1(C)C (stereo unspecified)	False

---

- Read-out: TIMP metallopeptidase inhibitor 1 (TIMP1), TIMP1 (gene 7076)
- procedure summary: BSK_hDFCGF_TIMP1: BioMAP Diversity Plus: hDFCGF Assay for TIMP metallopeptidase inhibitor 1 (TIMP1) Biomarker Activity (AID 2283062)
- condition notes: primary human foreskin fibroblasts; actives raise or lower the signal
The source made the active and inactive calls. How the source made its calls: active means hit-call score of the fitted dose curve at least 0.9, where 1 is the maximum; inactive means score below 0.9.
Labels: true (1) = active, false (0) = inactive

compound	assigned class
CCCCCCCC=O	false (0)
O=[N+]([O-])C(CO)(CO)CO	false (0)
CCOC(=O)CCC(=O)OCC	false (0)
Oc1ccc2c(c1)OC[C@@H](N1CCC(O)(c3ccc(F)cc3)CC1)[C@H]2O	false (0)
CCCCCCCCCCC	false (0)
NCCO	false (0)
CCCCCCCCCCO	false (0)
COc1ccc(C)cc1N	false (0)
COc1cc(-c2nc(NC(=O)c3cc4cc(C)cc(C)c4n3CC(=O)O)sc2CCC2CCCCC2)c(OC)cc1Cl	true (1)
C=CCc1ccc(O)c(OC)c1	false (0)
Cc1c(C(=O)O)c(O)cc2c1C(=O)c1c(O)c([C@@H]3O[C@H](CO)[C@@H](O)[C@H](O)[C@H]3O)c(O)c(O)c1C2=O	false (0)
Cc1ccc(C(C)C)c(O)c1	false (0)
COc1cc(C=O)ccc1O	false (0)
CN[C@H]1CC[C@@H](c2ccc(Cl)c(Cl)c2)c2ccc(S(N)(=O)=O)cc21	true (1)
COc1ccc2c(c1)c(CC(=O)O)c(C)n2C(=O)c1ccc(Cl)cc1	false (0)
C1CCC(SSC2CCCCC2)CC1	false (0)
Cc1nc(-c2ccc3c(c2)CCN(CCC2CCC(NC(=O)/C=C/c4ccc(F)cc4)CC2)CC3)no1 (stereo not drawn)	false (0)
CCc1c(C(=O)NN2CCCCC2)nn(-c2ccc(Cl)cc2Cl)c1-c1ccc(Br)cc1	true (1)

---

- procedure summary: ATG_GLI_CIS: Attagene CIS-FACTORIAL HepG2 Assay for human Zinc Finger Protein GLI1 (AID 2282945)
- condition notes: HepG2, Attagene cis-factorial reporter mRNA, GLI element; actives raise or lower the signal
- Procedure: ATG_CIS is a cell-based, multiplexed-readout assay that uses HepG2, a human liver cell line, with measurements taken at 24 hours after chemical dosing in a 24-well plate.ATG_GLI_CIS is one of 52 assay component(s) measured or calculated from the ATG_CIS assay. […] This assay endpoint, ATG_GLI_CIS, was analyzed with bidirectional fitting relative to DMSO as the negative control and baseline of activity. […]
Active and inactive are the calls of the source. How the source made its calls: active means hit-call score of the fitted dose curve at least 0.9, where 1 is the maximum; inactive means score below 0.9.
Labels: label 1 = active, label 0 = inactive

smiles entry	assigned class
Cc1cccc(C)c1O	label 0
CN1CCCC1=O	label 0
COc1ccc(C)cc1N	label 0
Oc1ccc2c(c1)OC[C@@H](N1CCC(O)(c3ccc(F)cc3)CC1)[C@H]2O	label 0
Cc1cc(=O)[nH]c(=S)[nH]1	label 0
CC(C)(C)c1cc(O)c(C(C)(C)C)cc1O	label 1
COc1cc(-c2nc(NC(=O)c3cc4cc(C)cc(C)c4n3CC(=O)O)sc2CCC2CCCCC2)c(OC)cc1Cl	label 1
CNC(=O)[C@H]1O[C@@H](n2cnc3c(NCc4cc(Cl)ccc4OCc4cc(C)no4)ncnc32)[C@H](O)[C@@H]1N	label 0
Cc1ccc2ncccc2c1	label 0
CC(C)c1ccc(C(=O)N=C(N)N)cc1S(C)(=O)=O	label 0
CCCCOC(=O)CCCCCCCCC(=O)OCCCC	label 0
CCCc1cc(=O)[nH]c(=S)[nH]1	label 0
CCCCCCCCCCC	label 0
CCCCc1ccc2c(n1)[C@@H](c1ccc(OC)cc1C[C@H](C)C(=O)O)[C@H](C(=O)O)[C@H]2c1ccc2c(c1)OCO2	label 0
CC(=O)OCCOCCOCCOC(C)=O	label 0
NCCO	label 0
CCNc1cccc(C)c1	label 0
CCOC(=O)CCC(=O)OCC	label 0
Nc1ccccc1N	label 0
O=[N+]([O-])C(CO)(CO)CO	label 0
C[Si]1(C)O[Si](C)(C)O[Si](C)(C)O[Si](C)(C)O1	label 0
COc1cc(/C=C/C(=O)CC(=O)/C=C/c2ccc(O)c(OC)c2)ccc1O	label 1
COc1cccc2c1C(=O)c1c(O)c3c(c(O)c1C2=O)C[C@@](O)(C(=O)CO)C[C@@H]3O[C@H]1C[C@H](N)[C@H](O)[C@H](C)O1	label 1
Cc1nc(C)nc(N2C[C@@H](C)N(c3ccnc([C@@H](C)O)n3)[C@@H](C)C2)n1	label 0
Cc1oc(-c2ccccc2)nc1CCOc1cccc2c1ccn2CCC(=O)O	label 0

Source: PubChem BioAssay (EPA / NIEHS)
